Values were extracted from PubChem BioAssay.

- System name: NADPH oxidase 5 (Homo sapiens) (UniProt Q96PH1)
- Sequence (Q96PH1 whole entry, looked up): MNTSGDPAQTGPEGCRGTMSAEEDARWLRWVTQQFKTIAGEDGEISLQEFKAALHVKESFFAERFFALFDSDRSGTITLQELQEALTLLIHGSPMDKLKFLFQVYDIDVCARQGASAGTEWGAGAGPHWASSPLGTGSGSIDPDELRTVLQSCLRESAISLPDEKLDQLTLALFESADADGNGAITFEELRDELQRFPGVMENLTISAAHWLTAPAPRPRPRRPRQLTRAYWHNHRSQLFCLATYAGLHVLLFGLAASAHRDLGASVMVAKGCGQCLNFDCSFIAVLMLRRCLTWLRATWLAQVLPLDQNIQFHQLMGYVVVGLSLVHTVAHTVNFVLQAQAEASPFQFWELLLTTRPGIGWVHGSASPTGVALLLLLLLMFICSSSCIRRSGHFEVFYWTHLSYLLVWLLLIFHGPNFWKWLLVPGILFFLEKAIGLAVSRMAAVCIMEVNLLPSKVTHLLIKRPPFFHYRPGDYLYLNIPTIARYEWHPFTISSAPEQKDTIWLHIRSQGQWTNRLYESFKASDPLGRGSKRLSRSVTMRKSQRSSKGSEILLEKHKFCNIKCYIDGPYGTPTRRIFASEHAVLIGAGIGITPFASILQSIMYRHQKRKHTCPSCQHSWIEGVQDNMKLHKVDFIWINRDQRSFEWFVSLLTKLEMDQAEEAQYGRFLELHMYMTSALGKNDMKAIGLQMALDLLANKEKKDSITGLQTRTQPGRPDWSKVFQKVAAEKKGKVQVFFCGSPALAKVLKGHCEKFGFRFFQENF
- Protocol text: NOX5-dependent H2O2 signal modulators, primary screen, NOX inhibitor project, cell-based, HEK293-NOX5, Amplex Red fluorescence (AID 1161)
- Recorded conditions: HEK293-NOX5, ionomycin, 45 min, higher = more signal
Quantity kind: z-score
One number for each entry.

Please review the following examples before continuing.
-- ask Record request: z-score value, item O=C(NCCO)C1=C[C@H](Oc2ccccc2I)[C@@H](O)[C@H](NCc2ccc(F)cc2)C1
-- reply -3.29

-- ask Endpoint output: z-score of CN1C(=O)[C@]2(CCC(=O)OC(C)(C)C)N=C(c3ccc(OCCCO)cc3)O[C@@H]2c2ccccc21 . Value?
-- reply -1.44

-- ask Quick one: z-score of O=C1N(CCS(=O)(=O)c2ccccc2)c2ccccc2[C@@H]2OC(c3ccc(OCCCO)cc3)=N[C@]12CCS(=O)(=O)c1ccccc1 ?
-- reply 2.43

-- ask Fill in: z-score of C[N+](C)(C)CCCC[C@@H]1NC(=O)[C@H]2C[C@@H](C(=O)NCCCCCNC(=O)CS)[C@@H](c3ccc(O)cc3)N2C1=O is ___
-- reply 1.52

-- ask Entry under review: COC(=O)[C@@]1(Cc2ccccc2CN=[N+]=[N-])COC(c2ccc(OCCCO)cc2)=N1 . Reported z-score?
-- reply -3.18

Required: z-score, one value per compound below.
1. COC(=O)c1ccc([C@H](NC(=O)c2ccccc2)[C@]2(C)C[C@H]2C2CCCCC2)cc1
2. N#Cc1ccc(C(O)C2C=CC3C(=O)NC(=O)C3N2Nc2ccccn2)cc1 (centres undefined)
3. C=CCC(OC(C)=O)[C@@H]1[C@@H](N(Cc2ccc(-c3cccc(C(F)(F)F)c3)o2)C(=O)Cc2ccc(F)cc2)c2cc(OCCCO)ccc2N1C(=O)c1ccc2ccccc2n1 (some centres undefined)
4. Cc1ccc(F)cc1S(=O)(=O)N[C@@H]1CCN(Cc2ccc3[nH]ccc3c2)C1
5. CN(C)CCCNC(=O)[C@@]1(Cc2ccccc2I)c2ccccc2C(=O)N(Cc2ccccc2)[C@H]1c1ccc(CO)cc1
6. COCCOC(=O)N1C(=O)[C@@]2(c3cc(C#CC4=CCCCC4)ccc31)[C@H](C(=O)N1CCc3cc(OC)c(OC)cc3C1)[C@H]1C(=O)O[C@H](c3ccccc3)[C@H](c3ccccc3)N1[C@@H]2c1ccc(O)cc1

-- reply
1. 1.22
2. -1.67
3. 1.13
4. -1.96
5. -1.71
6. 1.18
